Assay system Replicase polyprotein 1ab (Severe acute respiratory syndrome coronavirus 2); read-out recorded as log10(IC50).
# log10 transformed; quantity=IC50; unit=µM

The examples below pair each entry with its known result.
compound=O=C(On1nnc2ccccc21)c1ccc2[nH]ccc2c1 target_or_system="Replicase polyprotein 1ab (Severe acute respiratory syndrome coronavirus 2)" obs_value=-2.12
compound="C=C(C)C(Cc1c(OC)ccc(C(=O)/C=C/c2ccc(O)cc2)c1O)OO (stereo unspecified)" target_or_system="Replicase polyprotein 1ab (Severe acute respiratory syndrome coronavirus 2)" obs_value=1.20
compound="CCCCC1CCC(COC(=O)N[C@@H](CC(C)C)C(=O)N[C@H](C=O)C[C@@H]2CCNC2=O)CC1 (stereo partly specified)" target_or_system="Replicase polyprotein 1ab (Severe acute respiratory syndrome coronavirus 2)" obs_value=-0.77
compound=COC(=O)[C@]12CCC(C)(C)C[C@H]1[C@H]1C(=O)C=C3[C@@]4(C)C=C(C#N)C(=O)C(C)(C)[C@@H]4CC[C@@]3(C)[C@]1(C)CC2 target_or_system="Replicase polyprotein 1ab (Severe acute respiratory syndrome coronavirus 2)" obs_value=0.76
compound=CCOC(=O)/C=C/[C@H](C[C@@H]1CCNC1=O)NC(=O)[C@H](CC(C)C)NC(=O)[C@@H](NC(=O)OCc1ccccc1)[C@@H](C)OC(C)(C)C target_or_system="Replicase polyprotein 1ab (Severe acute respiratory syndrome coronavirus 2)" obs_value=2.18

Field: next compound
What value of log10(IC50) has been recorded for this entry: `CCOC(=O)/C=C/[C@H](C[C@@H]1CCNC1=O)NC(=O)[C@H](Cc1ccccc1)NC(=O)[C@H](N)Cc1ccccc1` -0.05
